experimental_system: PfKMO (Pseudomonas fluorescens, UniProt Q84HF5, C252S/C461S)
Construct: made in house; host or cells: E. coli BL21 (DE3)
Sequence (Q84HF5 whole entry C252S/C461S): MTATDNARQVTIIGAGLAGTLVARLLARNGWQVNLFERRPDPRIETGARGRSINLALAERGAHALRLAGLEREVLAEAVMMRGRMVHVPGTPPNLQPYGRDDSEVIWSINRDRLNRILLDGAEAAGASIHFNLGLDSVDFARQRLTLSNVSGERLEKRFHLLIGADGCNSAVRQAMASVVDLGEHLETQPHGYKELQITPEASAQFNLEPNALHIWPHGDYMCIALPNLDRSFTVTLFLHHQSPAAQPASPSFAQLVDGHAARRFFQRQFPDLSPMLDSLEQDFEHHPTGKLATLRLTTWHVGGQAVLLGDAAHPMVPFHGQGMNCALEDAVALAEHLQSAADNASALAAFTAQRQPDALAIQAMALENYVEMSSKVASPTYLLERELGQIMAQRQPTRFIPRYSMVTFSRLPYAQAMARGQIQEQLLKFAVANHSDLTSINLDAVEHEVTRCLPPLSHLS
method_description: Stopped-flow reduction of flavin cofactor by NADPH
Assay type: biochemical
experimental_parameters: PfKMO with saturating ligand, 2 mM NADPH, 25 °C, anaerobic
measurement_kind: Reduction rate of flavin cofactor (s⁻¹)
Number in s⁻¹, nothing else.

Nc1ccccc1C(=O)C[C@H](N)C(=O)O [L-KYN, reference compound] = 339

Query string: For PfKMO (Pseudomonas fluorescens, UniProt Q84HF5, C252S/C461S), provide Reduction rate of flavin cofactor of O=C(O)c1ccc(-c2cccc(Cl)c2Cl)o1 please.
Result string: 0.03

Query string: API: value(readout= Reduction rate of flavin cofactor, system= PfKMO (Pseudomonas fluorescens, UniProt Q84HF5, C252S/C461S), query= Cc1cc2c(c(C)c1Cl)N(CC(=O)O)C(=O)CO2 )
Result string: 0.13

Query string: Value wanted: Reduction rate of flavin cofactor (PfKMO (Pseudomonas fluorescens, UniProt Q84HF5, C252S/C461S)) of entry Cn1c(C(=O)N[C@@H](C(=O)O)c2ccccc2)cc2cc(Cl)ccc21
Result string: 0.03

Query string: Identify the measured Reduction rate of flavin cofactor of Cc1cc2c(c(C)c1Cl)N(Cc1nn[nH]n1)C(=O)CO2 for PfKMO (Pseudomonas fluorescens, UniProt Q84HF5, C252S/C461S).
Result string: 0.09

Query string: Which measured Reduction rate of flavin cofactor belongs to O=C(O)c1ccc(-c2ccc(Cl)c(Cl)c2)o1 , tested on PfKMO (Pseudomonas fluorescens, UniProt Q84HF5, C252S/C461S)?
Result string: 0.06
